// provenance: the supplement of paper PMC4466140

target: ScHof1; test: SPOT peptide array binding signal intensity (averaged, normalized) (arbitrary units (background-subtracted, floor 0; scale differs between SH3 domains)); higher = stronger binding of the SH3 domain to the peptide
readoutType: SPOT peptide array binding signal intensity
Please give the numeric answer without any surrounding text.

> print(dat)
            binder  resultnumber
1  HPRFVSPRIPSRIVK          8.75
2  SRQAIPPPVPNRPGG            10

Query: Quick one: SPOT peptide array binding signal intensity of `NLKKRPPTAPQRKIS` ?
Response: 2.75

Query: Quick one: SPOT peptide array binding signal intensity of `KTITLEVESSDTIDN` ?
Response: 1

Query: Quick one: SPOT peptide array binding signal intensity of `MARRRLPDRPPNGIG` ?
Response: 53.2

Query: Quick one: SPOT peptide array binding signal intensity of `DLFKPLPEPPTELGR` ?
Response: 1

Query: Quick one: SPOT peptide array binding signal intensity of `NLPKRKPPKLQGPFS` ?
Response: 1.25

Query: Quick one: SPOT peptide array binding signal intensity of `SPLGAPPPPPHKDHL` ?
Response: 1.5

Query: Quick one: SPOT peptide array binding signal intensity of `RKNRAPPQRPRFNRE` ?
Response: 2.5

Query: Quick one: SPOT peptide array binding signal intensity of `NSVPIMPTLPPRPYI` ?
Response: 252

Query: Quick one: SPOT peptide array binding signal intensity of `QGYPRQPQRPQRYHP` ?
Response: 0.75

Query: Quick one: SPOT peptide array binding signal intensity of `KRKRRLPVSEDTNTK` ?
Response: 3.5

Query: Quick one: SPOT peptide array binding signal intensity of `GATNNAPTLPKRKNP` ?
Response: 0.25

Query: Quick one: SPOT peptide array binding signal intensity of `ISRRRLPVIMHRLKM` ?
Response: 1
